Data provenance: paper PMC12668310

- Study System: mUSP18 (Mus musculus, UniProt Q9WTV6)
- Construct: (46-368); His-tag (N); made in house
- Sequence (Q9WTV6 46-368): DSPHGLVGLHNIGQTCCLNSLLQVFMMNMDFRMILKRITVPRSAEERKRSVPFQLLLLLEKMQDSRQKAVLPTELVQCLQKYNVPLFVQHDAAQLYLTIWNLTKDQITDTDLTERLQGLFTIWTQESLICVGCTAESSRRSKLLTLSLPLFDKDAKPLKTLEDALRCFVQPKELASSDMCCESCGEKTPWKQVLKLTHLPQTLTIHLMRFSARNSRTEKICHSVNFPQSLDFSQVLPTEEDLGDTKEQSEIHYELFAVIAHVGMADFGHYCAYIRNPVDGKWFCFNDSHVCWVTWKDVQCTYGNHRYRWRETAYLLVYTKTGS
- Method Description: High-throughput screening, ISG15ct-RhoMP, single dose 1.25 µM
- Type: biochemical, murine
- Setup Conditions: mUSP18 %inhibition; carboxylic acid (CA) building block alone; read-out: %inh CA only
Measured Quantity: inhibition at 1.25 µM (%)
// note: answer is a bare numeric in %

Would you please look over these solved cases?
[
  {
    "Molecule": "O=C(O)c1ncoc1C1CC1",
    "inhibition at 1.25 µM [%]": 13.7
  },
  {
    "Molecule": "O=C(O)c1ccc(B(O)O)cc1",
    "inhibition at 1.25 µM [%]": -7.88
  },
  {
    "Molecule": "O=C(O)c1cc(Cn2cc(Cl)cn2)cs1",
    "inhibition at 1.25 µM [%]": 8.26
  },
  {
    "Molecule": "O=C(O)c1csc(C2CCCCC2)n1",
    "inhibition at 1.25 µM [%]": 14.4
  },
  {
    "Molecule": "CNS(=O)(=O)c1ccc(-c2ccc(Cl)c(Cl)c2)c(C(=O)O)c1",
    "inhibition at 1.25 µM [%]": -2.91
  }
]

What does the record list as inhibition at 1.25 µM for O=C(O)c1coc(-c2cccnc2)n1 ?
21

What does the record list as inhibition at 1.25 µM for Cc1noc(C)c1Cc1ccc(C(=O)O)o1 ?
2.24

What does the record list as inhibition at 1.25 µM for CCn1nc(C(C)C)cc1C(=O)N1CCCCC1C(=O)O (stereo not drawn) ?
-2.4

What does the record list as inhibition at 1.25 µM for Cn1cc(-c2nc(C(=O)O)cs2)cn1 ?
-4.05

What does the record list as inhibition at 1.25 µM for O=C(O)CCc1ccccc1 ?
-7.29

What does the record list as inhibition at 1.25 µM for CN(Cc1ccco1)c1ccccc1C(=O)O ?
3.28

What does the record list as inhibition at 1.25 µM for Cc1n[nH]c(C)c1S(=O)(=O)N1CCC(C(=O)O)CC1 ?
-0.12
